species: Rattus norvegicus; assay: DrugMatrix - Regimen: Daily Repeat; format: toxicity, organism-based, Sprague-Dawley; parameters: regimen Daily Repeat, gender Male, age 6-8 weeks; details: in vivo, iv, 0 mg/kg, 120 h, tissue Blood, dose level Control, time 5 day, vehicle 100 % SALINE
I'd appreciate it if you could supply MONOCYTE values for the items below.
Form entry: value (%) — number only.

Query: MONOCYTE; subject: `CC1(C)S[C@@H]2[C@H](NC(=O)[C@H](NC(=O)N3CCNC3=O)c3ccccc3)C(=O)N2[C@H]1C(=O)O`
0.67

Query: MONOCYTE; subject: `NCC[C@H](O)C(=O)N[C@@H]1C[C@H](N)[C@@H](O[C@H]2O[C@H](CN)[C@@H](O)[C@H](O)[C@H]2O)[C@H](O)[C@H]1O[C@H]1O[C@H](CO)[C@@H](O)[C@H](N)[C@H]1O`
0.5

Query: MONOCYTE; subject: `CC[C@@]1(O)C(=O)OCc2c1cc1n(c2=O)Cc2cc3ccccc3nc2-1`
0.5

Query: MONOCYTE; subject: `CN(N=O)C(=O)N[C@@H](C=O)[C@@H](O)[C@H](O)[C@H](O)CO`
2.33

* * *

species on record: Rattus norvegicus; experiment: DrugMatrix - Regimen: Daily Repeat; format: toxicity, organism-based, Sprague-Dawley; design: regimen Daily Repeat, gender Male, age 6-8 weeks; conditions: in vivo, po, 0 mg/kg, 72 h, tissue Blood, route oral GAVAGE, dose level Control, time 3 day, vehicle .5 % CMC
I'd appreciate it if you could supply ABSOLUTE SEGMENTED NEUTROPHIL values for the items below.
Form entry: value (CELLS/uL) — number only.

Query: ABSOLUTE SEGMENTED NEUTROPHIL; subject: `O=c1[nH]cc(F)c(=O)[nH]1`
1298

Query: ABSOLUTE SEGMENTED NEUTROPHIL; subject: CC1(C)[C@H]2CC[C@]1(C)C(=O)C2 [(-)-CAMPHOR]
1490.83

Query: ABSOLUTE SEGMENTED NEUTROPHIL; subject: `Brc1ccccc1`
1575

Query: ABSOLUTE SEGMENTED NEUTROPHIL; subject: Cc1c(-c2ccccc2)oc2c(C(=O)OCCN3CCCCC3)cccc2c1=O [FLAVOXATE]
1932.67

Query: ABSOLUTE SEGMENTED NEUTROPHIL; subject: CCOC(=O)OC(C)OC1=C(C(=O)Nc2ccccn2)N(C)S(=O)(=O)c2ccccc21 (stereo not drawn)
1575

Query: ABSOLUTE SEGMENTED NEUTROPHIL; subject: `CN1CCC[C@@H]1CCO[C@](C)(c1ccccc1)c1ccc(Cl)cc1`
1192.33

Query: ABSOLUTE SEGMENTED NEUTROPHIL; subject: `COC(=O)c1ccc(O)cc1`
1401

Query: ABSOLUTE SEGMENTED NEUTROPHIL; subject: COc1c(C)c2c(c(O)c1C/C=C(\C)CCC(=O)OCCN1CCOCC1)C(=O)OC2 [MYCOPHENOLATE MOFETIL]
1192.33

Query: ABSOLUTE SEGMENTED NEUTROPHIL; subject: CCc1ccc(C(=O)C(C)CN2CCCCC2)cc1 (stereo not drawn)
1024.17

Query: ABSOLUTE SEGMENTED NEUTROPHIL; subject: `CC(C)[C@H](N)C(=O)OCCOCn1cnc2c(=O)[nH]c(N)nc21`
1121.33

Query: ABSOLUTE SEGMENTED NEUTROPHIL; subject: `C=C1CC[C@H](O)C/C1=C/C=C1\CCC[C@]2(C)[C@@H]([C@H](C)/C=C/[C@H](C)C(C)C)CC[C@@H]12`
752.17

Query: ABSOLUTE SEGMENTED NEUTROPHIL; subject: `CCC[C@@H]1C[C@@H](C(=O)N[C@@H]([C@H]2O[C@H](SC)[C@H](O)[C@@H](O)[C@H]2O)[C@@H](C)O)N(C)C1`
970

Query: ABSOLUTE SEGMENTED NEUTROPHIL; subject: `CC(/C=C1\SC(=S)N(CC(=O)O)C1=O)=C\c1ccccc1`
1192.33
